Tested On: TEAD4 TAZ (amino acids 13-57) (Homo sapiens)
Sequence (Q15561 217-434 limits assumed): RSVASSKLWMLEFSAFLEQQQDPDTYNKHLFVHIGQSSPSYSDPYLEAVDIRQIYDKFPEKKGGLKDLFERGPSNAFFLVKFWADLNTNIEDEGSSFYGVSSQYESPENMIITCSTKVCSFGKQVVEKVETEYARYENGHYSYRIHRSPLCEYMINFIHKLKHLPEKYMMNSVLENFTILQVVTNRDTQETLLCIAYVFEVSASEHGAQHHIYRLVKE
Protocol Details: TEAD4-TAZ HTRF (TR-FRET) protein-protein interaction assay
Run Conditions: TEAD4-TAZ HTRF, TR-FRET 665 nm/615 nm; read-out: TEAD4 TAZ HTRF combined: EC50
pEC50: −log10 of the molar value.

Compound	pEC50
Cc1nccnc1-c1nn2c(=O)cc(-c3ccc(CC4CCCC4)cc3)[nH]c2c1C(=O)N1C[C@@H](CF)[C@H]1C (single isomer, unassigned) [Isomer A, Example 42]	5.96
CC1CCN1C(=O)c1nn2c(=O)cc(-c3ccc(C4CCCCC4)cc3)[nH]c2c1C(=O)N1CC(CF)C1 (single isomer, unassigned) [Enantiomer A, Example 33]	6.39
C[C@H]1[C@@H](CF)CN1C(=O)c1c(-c2cnccn2)nn2c(=O)cc(-c3ccc(CC4CCCC4)cc3)[nH]c12 (single isomer, unassigned) [Isomer A, Example 44]	5.02

----------
Entries and their measured EC50 follow.
Tested On: TEAD4 TAZ (amino acids 13-57) (Homo sapiens)
Protocol Details: TEAD4-TAZ HTRF (TR-FRET) protein-protein interaction assay
Run Conditions: TEAD4-TAZ HTRF, TR-FRET 665 nm/615 nm; read-out: TEAD4 TAZ HTRF combined: EC50

Compound	EC50 [nM]
Cc1nccnc1-c1nn2c(=O)cc(-c3ccc(OC(c4ccccc4)C(F)(F)F)cc3)[nH]c2c1C(=O)N1C[C@H](CF)[C@@H]1C (single isomer, unassigned) [Final product obtained using Enantiomer A from Step 1, Example 56]	2250
O=C(c1c(C2CNCCO2)nn2c(=O)cc(-c3ccc(C4CCCCC4)cc3)[nH]c12)N1CC(CF)C1 (single isomer, unassigned) [Enantiomer B, Example 63]	590
Cc1nccnc1-c1nn2c(=O)cc(-c3ccc(C4CCCCC4)cc3)[nH]c2c1C(=O)N1C[C@H](CF)[C@@H]1C (single isomer, unassigned) [Isomer B, Example 41]	30
O=C(c1c(-c2cccnc2)nn2c(=O)cc(-c3ccc(C4CCCCC4)cc3)[nH]c12)N1CC(CF)C1	160
C[C@@H]1[C@H](CF)CN1C(=O)c1c(-c2ncccn2)nn2c(=O)cc(-c3ccc(CC4CCCC4)cc3)[nH]c12 (single isomer, unassigned) [Isomer B, Example 43]	270

----------
Entries and their measured TEAD1 YAP50-100 HTRF combined: Max % Inhibition follow.
Tested On: TEAD1 YAP50-100 (Homo sapiens)
Sequence (P28347 167-426 limits assumed): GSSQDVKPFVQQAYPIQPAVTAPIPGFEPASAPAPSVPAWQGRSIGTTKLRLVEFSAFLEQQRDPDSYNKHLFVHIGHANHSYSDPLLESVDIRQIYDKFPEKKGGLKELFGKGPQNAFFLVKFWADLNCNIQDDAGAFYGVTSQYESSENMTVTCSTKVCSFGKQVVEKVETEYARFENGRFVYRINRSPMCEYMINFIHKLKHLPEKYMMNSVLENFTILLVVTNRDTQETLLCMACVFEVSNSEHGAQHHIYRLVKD
Protocol Details: TEAD1-YAP HTRF (TR-FRET) protein-protein interaction assay
Type: binding
Run Conditions: TEAD1, YAP peptide 50-100, HTRF
Endpoint Label: TEAD1 YAP50-100 HTRF combined: Max % Inhibition (%)

Compound	Measured Number
CC(C)c1ccnc(-c2nn3c(=O)cc(-c4ccc(C5CCCCC5)cc4)[nH]c3c2C(=O)N2CC(CF)C2)n1	77.0
C[C@@H]1[C@H](CF)CN1C(=O)c1c(-c2cnccn2)nn2c(=O)cc(-c3ccc(C4CCCCC4)cc3)[nH]c12 (single isomer, unassigned) [Isomer B, Example 39]	62.0
O=C(c1c(-c2cccnc2)nn2c(=O)cc(-c3ccc(C4CCCCC4)cc3)[nH]c12)N1CC(CF)C1	66.0
CCn1cnc(-c2nn3c(=O)cc(-c4ccc(C5CCCCC5)cc4)[nH]c3c2C(=O)N2CC(CF)C2)c1	65.0
C[C@H]1[C@@H](CF)CN1C(=O)c1c(-c2cnccn2)nn2c(=O)cc(-c3ccc(CC4CCCC4)cc3)[nH]c12 (single isomer, unassigned) [Isomer B, Example 44]	69.0
C[C@H](CO)c1nn2c(=O)cc(-c3ccc(C4CCCCC4)cc3)[nH]c2c1C(=O)N1CC(CF)C1 (single isomer, unassigned) [Enantiomer A, Example 55]	62.0
CC(C)c1ccc(COc2cc(=O)n3nc(-c4cnccn4)c(C(=O)N4CC(CF)C4)c3[nH]2)cc1	70.0
O=C(c1c(C2CNCCO2)nn2c(=O)cc(-c3ccc(C4CCCCC4)cc3)[nH]c12)N1CC(CF)C1 (single isomer, unassigned) [Enantiomer B, Example 63]	62.0
Cc1nccnc1-c1nn2c(=O)cc(-c3ccc(CC(C)(C)C)cc3)[nH]c2c1C(=O)N1C[C@H](CF)[C@@H]1C (racemic)	74.0
Cc1nccnc1-c1nn2c(=O)cc(-c3ccc(C4CCCCC4)cc3)[nH]c2c1C(=O)N1CC(CF)C1	75.0
CC(C)(C)c1ccc(COc2cc(=O)n3nc(-c4ncccn4)c(C(=O)N4CC(CF)C4)c3[nH]2)cc1	71.0
Cc1nccnc1-c1nn2c(=O)cc(-c3ccc(O[C@@H](c4ccccc4)C(F)(F)F)cc3)[nH]c2c1C(=O)N1CC(CF)C1	69.0
C[C@@H]1[C@H](CF)CN1C(=O)c1c(C(=O)N(C)C)nn2c(=O)cc(-c3ccc(C4CCCCC4)cc3)[nH]c12	73.0
C[C@H]1[C@@H](CF)CN1C(=O)c1c(-c2cnccn2)nn2c(=O)cc(-c3ccc(CC4CCCC4)cc3)[nH]c12 (single isomer, unassigned) [Isomer A, Example 44]	64.0
CN(C)C(=O)c1nn2c(=O)cc(-c3cc(F)c(C4CCCCC4)c(F)c3)[nH]c2c1C(=O)N1CC(CF)C1	55.0
Cc1nccnc1-c1nn2c(=O)cc(-c3ccc(O[C@H](c4ccccc4)C(F)(F)F)cc3)[nH]c2c1C(=O)N1CC(CF)C1	65.0
Cc1ccnc(-c2nn3c(=O)cc(-c4ccc(C5CCCCC5)cc4)[nH]c3c2C(=O)N2CC(CF)C2)c1C	78.0
O=C(c1c(C2CNCCO2)nn2c(=O)cc(-c3ccc(C4CCCCC4)cc3)[nH]c12)N1CC(CF)C1 (single isomer, unassigned) [Enantiomer A, Example 63]	66.0
O=C(c1nn2c(=O)cc(-c3ccc(C4CCCCC4)cc3)[nH]c2c1C(=O)N1CC(CF)C1)N1CCCC1	70.0
COc1nccnc1-c1nn2c(=O)cc(-c3ccc(C4CCCCC4)cc3)[nH]c2c1C(=O)N1CC(CF)C1	74.0
CC(C)(C)c1ccc(COc2cc(=O)n3nc(-c4cnccn4)c(C(=O)N4CC(CF)C4)c3[nH]2)cc1	72.0
O=C(c1c(-c2ncccn2)nn2c(=O)cc(-c3ccc(C4(C5CCCC5)CC4)cc3)[nH]c12)N1CC(CF)C1	56.0
C[C@H]1[C@@H](CF)CN1C(=O)c1c(-c2ncccn2)nn2c(=O)cc(-c3ccc(CC4CCCC4)cc3)[nH]c12 (single isomer, unassigned) [Isomer A, Example 43]	64.0
CC(CO)c1nn2c(=O)cc(-c3ccc(C4CCCCC4)cc3)[nH]c2c1C(=O)N1CC[C@@H](C#N)C1 (single isomer, unassigned) [Final product obtained using Enantiomer A from Step 4, Example 54]	59.0
